- target_entity: IYD from Haliscomenobacter hydrossis (Haliscomenobacter hydrossis, UniProt F4KU78)
- Sequence (F4KU78 whole entry): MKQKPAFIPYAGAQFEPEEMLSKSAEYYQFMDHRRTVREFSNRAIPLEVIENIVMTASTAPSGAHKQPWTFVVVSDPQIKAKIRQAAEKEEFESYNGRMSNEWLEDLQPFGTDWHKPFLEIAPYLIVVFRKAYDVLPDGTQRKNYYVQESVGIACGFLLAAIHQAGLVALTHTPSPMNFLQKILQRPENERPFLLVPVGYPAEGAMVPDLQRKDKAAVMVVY
- protocol_notes: biochemical
- Format: binding
pKd: −log10 of the molar value.
Reported pKd values are given for each entry in this list.
metric_name: pKd

N[C@@H](Cc1ccc(O)c(F)c1)C(=O)O [F-Tyr, L-3-fluorotyrosine, reference compound] :: 4.01
N[C@H](Cc1ccc(O)c(I)c1)C(=O)O [D-I-Tyr, D-3-iodotyrosine] :: 3.57
O=C(O)[C@@H](O)Cc1ccc(O)c([N+](=O)[O-])c1 [O2N-HPLA] :: 3.74

###

Quick reference for log10 Kd among some compounds
- target_entity: IYD from Haliscomenobacter hydrossis (Haliscomenobacter hydrossis, UniProt F4KU78)
- protocol_notes: biochemical
- Type: binding
- measurement_setup: IYD with FMNox, 110 mM potassium phosphate pH 7.4, 25 °C
metric_name: log10 Kd (log10 of the value in µM)

NCCc1ccc(O)c(I)c1 [I-tyramine] :: 2.00
NCCc1ccc(O)c([N+](=O)[O-])c1 [O2N-tyramine] :: 2.45
NC(=O)C(N)Cc1ccc(O)c(I)c1 (stereo not drawn) [I-tyrosinamide] :: 0.85
NC(=O)[C@@H](N)Cc1ccc(O)c([N+](=O)[O-])c1 [O2N-tyrosinamide] :: 0.38
NC(=O)[C@@H](N)Cc1ccc(O)c(F)c1 [F-tyrosinamide] :: 1.89
NCCc1ccc(O)c(F)c1 [F-tyramine] :: 2.86
